# Tested on: OCI-AML2
# Method: cell viability relative to vehicle control; higher = less cytotoxic;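 also: after 48 h exposure read by CellTiter-Glo luminescence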
# Condition Context: 10 µM; SRSF2 genotype: wt/wt
Measured Attribute: cell viability (%)
Enter your answer as a number in %; do not include the unit.

Let me know recorded cell viability for O=C1c2c(O)cccc2C([C@@H]2O[C@H](CO)[C@@H](O)[C@H](O)[C@H]2O)c2cc(CO)cc(O)c21 (some centres undefined) , thanks.
102

Specify cell viability for NC(=O)c1ccc[n+]([O-])c1 [Nicotinamide N-oxide] and stop.
101

Indicate the recorded cell viability value for this compound: O=S(=O)(O)CCSSCCS(=O)(=O)O
105

Determine from records and report cell viability for CC(C)c1nc(CN(C)C(=O)N[C@@H](CCN2CCOCC2)C(=O)N[C@H](CC[C@H](Cc2ccccc2)NC(=O)OCc2cncs2)Cc2ccccc2)cs1 [Cobicistat (GS-9350)]
83.8

* * *

# System: MOLM14
# Method: cell viability relative to vehicle control; higher = less cytotoxic
# Condition Context: 10 µM; SRSF2 genotype: SRSF2 P95H/wt
Measured Attribute: cell viability (%)
Give just the number in %; leave the unit off.

Provide one value: measured cell viability of CC1OC2OC3C(OCC(O)C3O)OC(=O)C34CCC(C)(C)CC3C3=CCC5C6(C)CC(O)C(OC7OC(CO)C(O)C(O)C7OC7OCC(OC(=O)CC(C)(O)CC(=O)OC1C(OC1OCC(O)C(O)C1O)C2O)C(O)C7O)C(C)(CO)C6CCC5(C)C3(C)CC4O (stereo unspecified) [Tubeimoside II]
51.2

Return cell viability for the following molecule: CCCC(=O)O[C@]1(C(=O)COC(C)=O)CC[C@H]2[C@@H]3C[C@H](F)C4=CC(=O)C=C[C@]4(C)[C@@]3(F)[C@@H](O)C[C@@]21C [Difluprednate]
91.2

Quickly give me recorded cell viability for C[C@]12CC[C@@H]3c4ccc(O)cc4CC[C@H]3[C@@H]1CC[C@@H]2OC(=O)CCC1CCCC1 [Estradiol Cypionate]
75

Give the reported cell viability for this molecule. CN(C)C(=O)CCSC(SCCC(=O)O)c1cccc(/C=C/c2ccc3ccc(Cl)cc3n2)c1 (stereo unspecified)
108

Look up and report measured cell viability for this entry: CSc1cccc(Nc2ncc3cc(-c4c(Cl)cccc4Cl)c(=O)n(C)c3n2)c1
26.6

Identify measured cell viability associated with C[C@H]1CN(C[C@H](Cc2ccccc2)C(=O)NCC(=O)O)CC[C@@]1(C)c1cccc(O)c1 [Alvimopan dihydrate]
102

* * *

# Test system: MARIMO
# Method: cell viability relative to vehicle control; higher = less cytotoxic
# Condition Context: 10 µM; SRSF2 genotype: SRSF2 P95H/wt
Measured Attribute: cell viability (%)
Express it in %; write the number only.

Please report cell viability for the following compound: COC(=O)CCC(C)C1CCC2C3C(O)CC4CC(O)CCC4(C)C3CC(O)C12C (stereo unspecified) [Methyl Cholate]
104

Using the record for Cc1cnc(C(=O)NCCc2ccc(S(=O)(=O)NC(=O)NC3CCCCC3)cc2)cn1 [Glipizide (Glucotrol)] , state its measured cell viability.
90.9

For the compound CC1=C(CC[C@@H](C)CO[C@@H]2O[C@H](CO)[C@@H](O)[C@H](O)[C@H]2O)O[C@H]2C[C@H]3[C@@H]4CC=C5C[C@@H](O[C@@H]6O[C@H](CO)[C@@H](O[C@@H]7O[C@@H](C)[C@H](O)[C@@H](O)[C@H]7O)[C@H](O)[C@H]6O[C@@H]6O[C@@H](C)[C@H](O)[C@@H](O)[C@H]6O)CC[C@]5(C)[C@H]4CC[C@]3(C)[C@@H]12 [Pseudoprotodioscin] , give its reported cell viability.
99.3

Read the entry COc1ccc(-c2cc(=O)c3c(O)cc(O)cc3o2)cc1O [Diosmetin (Luteolin 4-methyl ether)] and write its reported cell viability.
105

Using known records, supply cell viability for Oc1ccc(OCc2ccccc2)cc1 [Monobenzone (Benoquin)]
53.8

Identify measured cell viability corresponding to COc1ccc2cc3[n+](cc2c1OC)CCc1cc2c(cc1-3)OCO2 [Berberine chloride]
67.2
